Kindly supply the reported IC50 values for the records listed here.
Target: T1, SCAF8-CID (human, UniProt Q9UPN6 1-139)
T1 sequence: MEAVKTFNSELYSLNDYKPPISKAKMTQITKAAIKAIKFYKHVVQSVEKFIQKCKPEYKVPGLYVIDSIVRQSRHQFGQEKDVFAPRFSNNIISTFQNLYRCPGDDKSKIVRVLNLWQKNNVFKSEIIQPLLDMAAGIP
Test: competition FP
Give bare numbers, in nM.

GGGGTGGGGAG (ssDNA) [SRiApt-1 (SCAF4_F3_11nt)]: 1500

// input: 2 binders below; output: IC50 for each
1. TTAAAGGGGTGGGGAGTCAT (ssDNA) [SRiApt-3]
2. CAGGTGGGTTC (ssDNA) [SRiApt-2 (F7_11nt_B)]

OUTPUT:
[291, 2690]
